IC50, HSV‐1 pUL15C (Human herpesvirus 1): measured values

- compound: "COc1ccc(-c2ccc(CN3[C@@H]4COCCN4C(=O)c4c(O)c(=O)ccn43)cc2)cc1 [Compound 33]"
  IC50: "19.4 µM"
- compound: "O=C1c2c(O)c(=O)ccn2N(Cc2ccc3ccc4cccc5ccc2c3c45)[C@@H]2COCCN12 [Compound 12]"
  IC50: "> 30 µM"
- compound: "O=C1c2c(O)c(=O)ccn2N(Cc2ccc(-c3ccc([N+](=O)[O-])cc3)cc2)[C@@H]2COCCN12 [Compound 32]"
  IC50: "> 30 µM"
- compound: "O=C(Nc1ccccc1)c1ccc(-c2ccc(CN3[C@@H]4COCCN4C(=O)c4c(O)c(=O)ccn43)cc2)cc1 [Compound 40]"
  IC50: "> 30 µM"
- compound: "O=C1c2c(O)c(=O)ccn2N(Cc2ccc(-c3ccc4[nH]ccc4c3)cc2)[C@@H]2COCCN12 [Compound 19]"
  IC50: "> 30 µM"
- compound: "O=C1c2c(O)c(=O)ccn2N(Cc2ccc(-c3ccc(Cl)cc3)cc2)[C@@H]2COCCN12 [Compound 31]"
  IC50: "> 30 µM"

---

# System: ACV‐resistant HSV‐1 strain F‐TKGF
# assay.overview: Antiviral assay, ACV‐resistant HSV‐1 strain F‐TKGF in Vero cells
# condition.summary: Human alphaherpesvirus 1, Vero, read-out: EC50 against ACV‐resistant strain F‐TKGF
pEC50: −log10 of the molar value.
recorded.metric: pEC50

- molecule: "O=C1c2c(O)c(=O)ccn2N(Cc2ccc(-c3ccccc3)cc2)[C@@H]2COCCN12 [Compound 17]"
  recorded.metric: "pEC50"
  relation: "="
  meas.value: 5.49
- molecule: "Nc1nc2c(ncn2COCCO)c(=O)[nH]1 [Acyclovir (ACV), Acyclovir, reference compound]"
  recorded.metric: "pEC50"
  relation: "<"
  meas.value: 4.70

---

# assay.overview: Pharmacokinetics studies in rats
# Format: in vivo
# condition.summary: male, Sprague-Dawley, plasma; rat, IV 2 mg/Kg
# Procedure: Six male Sprague‐Dawley rats (180–200 g) were randomly divided into two groups to receive […] of LN‐7 at 2 mg kg^−1 (iv administration) or 10 mg kg^−1 (po administration). […] The supernatant was analyzed by liquid chromatography–tandem mass spectrometry. […] Quantification was achieved using multiple reaction monitoring with the following transitions: m/z 403.15. Pharmacokinetic parameters such as AUC, T 1/2, and C max were calculated with the WinNonlin software.

- compound: "O=C1c2c(O)c(=O)ccn2N(Cc2ccc(-c3ccccc3)cc2)[C@@H]2COCCN12"
  unit.info: "min"
  Tmax: 5

Data provenance: paper PMC12622528
